Source of measurements: patent US10538475B2

System: M. smeg (mc2155)
Assay: MIC by 96-well microplate twofold dilution, M. smeg
Format: cell-based
Settings: M. smeg mc2155; minimal media; 3-4 day; highest concentration tested 1024 μg/ml
measured attribute: MIC (µg/mL)

compound=CCCCCCCCC1=C(CCCCCCCC(=O)O)CC1 observed_measurement=256
compound="O=C(O)CCCCCCCC1CC(O)C1 (centres unmarked)" observed_measurement=64
compound="CCCCCCCC[C@H]1CC[C@H]1CCCCCCCC(=O)O (relative stereo) [Compound 2, cis-9,10-Ethanooctadecanoic acid]" observed_measurement=64
compound="N[C@@H]1CONC1=O [DCS, D-cycloserine, reference compound]" observed_measurement=75
compound=O=C(O)CCCCCCCC1CC(=O)C1 observed_measurement=128

----------
Reported MIC values for a set of compounds
System: M. tb (H37Rv)
Assay: MIC by 96-well microplate twofold dilution, M. tb H37Rv
Assay type: cell-based, Mycobacterium tuberculosis
Settings: minimal media, 5-7 weeks, highest concentration tested 256 μg/ml
measured attribute: MIC

compound=CCCCCCCCC1=C(CCCCCCCC(=O)O)CC1 observed_measurement="16 µg/mL"
compound="O=C(O)CCCCCCCC1CC(O)C1 (centres unmarked)" observed_measurement="128 µg/mL"
compound="CCCCCCCC[C@H]1CC[C@H]1CCCCCCCC(=O)O (relative stereo) [Compound 2, cis-9,10-Ethanooctadecanoic acid]" observed_measurement="16 µg/mL"
compound="N[C@@H]1CONC1=O [DCS, D-cycloserine, reference compound]" observed_measurement="12.5 µg/mL"
compound=O=C(O)CCCCCCCC1CC(=O)C1 observed_measurement="256 µg/mL"

----------
Test system: M. tb (H37Rv)
Experiment: MIC by 96-well microplate twofold dilution, M. tb H37Rv
Type: cell-based, Mycobacterium tuberculosis
Conditions: minimal media, 5-7 weeks, read-out: MIC
measured attribute: MIC (µM)

compound="N[C@@H]1CONC1=O [DCS, D-cycloserine, reference compound]" measured_attribute=MIC observed_measurement=122
compound="CCCCCCCC[C@H]1CC[C@H]1CCCCCCCC(=O)O (relative stereo) [Compound 2, cis-9,10-Ethanooctadecanoic acid]" measured_attribute=MIC observed_measurement=52
compound="O=C(O)CCCCCCCC1CC(O)C1 (stereo not shown)" measured_attribute=MIC observed_measurement=597
compound=CCCCCCCCC1=C(CCCCCCCC(=O)O)CC1 measured_attribute=MIC observed_measurement=52
